Data origin, for the record: PubChem BioAssay

# Run Description: drug combination growth inhibition, ovarian cancer – cell-based, oncology-focused library, rucaparib conditional, profiling panel (AID 1508598)
# Condition Details: patient-derived ovarian cancer cells, CellTiter-Glo viability, 144 h; at 0.00122 µM; OCI-P5x cells; without rucaparib; stronger effect = lower value
Exercise: for every item that follows, state its recorded viability.
One number for each entry, in %.

> print(dat)
                                smiles.repr  observed.measurement
1  CC(C)(C#N)c1cc(Cn2cncn2)cc(C(C)(C)C#N)c1                  95.3
2  CN(Cc1cnc2nc(N)nc(N)c2n1)c1ccc(C(=O)N[C@@H](CCC(=O)O)C(=O)O)cc1                   109
3    COC(=O)Nc1nc2ccc(C(=O)c3cccs3)cc2[nH]1                  90.4

Lab note: each compound below needs its viability filled in.
1. Cc1nc(-c2ccc(OCC(C)C)c(C#N)c2)sc1C(=O)O
2. CCc1c2c(nc3ccc(OC(=O)N4CCC(N5CCCCC5)CC4)cc13)-c1cc3c(c(=O)n1C2)COC(=O)[C@]3(O)CC
3. O=NN(CCCl)C(=O)NC1CCCCC1
4. CC[C@@]1(O)C(=O)OCc2c1cc1n(c2=O)Cc2cc3c(CN(C)C)c(O)ccc3nc2-1

1: 99.6; 2: 105; 3: 107; 4: 79.7

---

Exercise: for every item that follows, state its recorded tube area decrease.
# Run Description: inhibition of endothelial tube formation, primary screen, imaging, VEGF stimulated, CD31 staining, tube area, NPC library (AID 1117340)
# Condition Details: VEGF-stimulated ADSC/ECFC co-culture, at 10 µM, stronger effect = higher value
Answers are plain numbers, in %.

Molecule	tube area decrease / %
CC(C)NCC(O)COc1ccc(COCCOC(C)C)cc1 (configuration not stated)	-2.7

Lab note: each molecule below needs its tube area decrease filled in.
1. C[C@@H]1CN(c2c(F)c(N)c3c(=O)c(C(=O)O)cn(C4CC4)c3c2F)C[C@H](C)N1
2. CC1=NN(c2ccccc2)C(=O)C1
3. CC(C)(C(=O)c1cccnc1)c1cccnc1
4. CCN(CC)CCNC(=O)c1cc(S(C)(=O)=O)ccc1OC

1: -14.6; 2: 6.7; 3: 4.4; 4: 12

---

# Run Description: chitosan synthesis blockers in C. neoformans – flow cytometry, Cibacron Brilliant Red staining (AID 1347148);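 further: compound exposure lasted three days at 37 degrees C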
# Condition Details: Cryptococcus neoformans chitosan; at 10 µM unless noted
Activity calls are given as the source filed them. How the calls were made is not given here. Starred links: 1 amine or outer side, 2 acyl side, 3 side chain; linkers in the order of their positions; H or OH if unused. Positions of bridges follow the written chain, without caps; N, C: chain ends. Non-standard residues stand in square brackets, D forms with d. Residues, ends and D or L forms follow the SMILES beside them. Chains are numbered I, II in the order given. Actinocin(9to1) = Cc1c2oc3c(C)ccc(C(=O)[*:1])c3nc-2c(C(=O)[*:2])c(N)c1=O; NMeV = CN[C@H](C(=O)O)C(C)C; Sar = CNCC(=O)O
Form entry, call: pick from t for active, f for inactive

These recorded examples may help you get a feel for the data.
Compound	Group
CCOC(=O)C1=C[C@]2(CC)CCCN3CCc4c(n1c1ccccc41)[C@@H]32	f
CN(Cc1cnc2nc(N)nc(N)c2n1)c1ccc(C(=O)N[C@@H](CCC(=O)O)C(=O)O)cc1	f
CCOC(=O)C(C)(C)Oc1ccc(Cl)cc1	f
Cc1c2oc3c(C)ccc(C(=O)N[C@@H]4C(=O)N[C@H](C(C)C)C(=O)N5CCC[C@H]5C(=O)N(C)CC(=O)N(C)[C@@H](C(C)C)C(=O)O[C@@H]4C)c3nc-2c(C(=O)N[C@@H]2C(=O)N[C@H](C(C)C)C(=O)N3CCC[C@H]3C(=O)N(C)CC(=O)N(C)[C@@H](C(C)C)C(=O)O[C@@H]2C)c(N)c1=O (I: T[dV]P[Sar][NMeV] / II: T[dV]P[Sar][NMeV]; ester I:1-I:C, II:1-II:C; linker I:N-II:N via Actinocin(9to1))	f
COc1cc(/C=C/C(=O)CC(=O)/C=C/c2ccc(O)c(OC)c2)ccc1O	f

Recorded test outcome, item Fc1ccc(C(c2ccc(F)cc2)N2CCN(C/C=C/c3ccccc3)CC2)cc1
f

Recorded test outcome, item Cc1[nH]c(=O)c(C#N)cc1-c1ccncc1
f

Recorded test outcome, item O=c1c(O)c(-c2ccc(O)c(O)c2)oc2cc(O)cc(O)c12
t

Recorded test outcome, item CCCc1c(OCCCCc2nn[nH]n2)ccc(C(C)=O)c1O
f

Recorded test outcome, item O=C(O)CN1C(=O)c2cccc3cccc(c23)C1=O
f

Recorded test outcome, item CC1=NN(c2ccccc2)C(=O)C1
f

Recorded test outcome, item COc1cc(-c2ccc(=O)[nH]n2)ccc1OC(F)F
f

Recorded test outcome, item CS(=O)(=O)Nc1ccc([N+](=O)[O-])cc1Oc1ccccc1
f

Recorded test outcome, item CC(C)(Oc1ccc(CCNC(=O)c2ccc(Cl)cc2)cc1)C(=O)O
f

Recorded test outcome, item O=C(O)c1ccccc1Nc1cccc(C(F)(F)F)c1
f

Recorded test outcome, item COC(=O)Nc1nc2ccc(C(=O)c3cccs3)cc2[nH]1
f

---

# Run Description: drug combination growth inhibition, ovarian cancer – cell-based, oncology-focused library, rucaparib conditional, profiling panel (AID 1508598)
# Condition Details: patient-derived ovarian cancer cells, CellTiter-Glo viability, 144 h; at 0.00488 µM; OCI-C5x cells; without rucaparib; stronger effect = lower value
Metric: viability (%)
Give bare numbers, in %.

Consider the following illustrative entries.
> print(dat)
                                   molecule  unit.string  observed.measurement
1                  Cn1nnc2c(C(N)=O)ncn2c1=O            %                   110
2  CC(C)(C#N)c1cc(Cn2cncn2)cc(C(C)(C)C#N)c1            %                   107
3  COc1cc2c(Nc3ccc(Br)cc3F)ncnc2cc1OCC1CCN(C)CC1            %                   111
4    COC(=O)Nc1nc2ccc(C(=O)c3cccs3)cc2[nH]1            %                   108
5  CN(Cc1cnc2nc(N)nc(N)c2n1)c1ccc(C(=O)N[C@@H](CCC(=O)O)C(=O)O)cc1            %                   106
6  Cc1nc2ccc(CN(C)c3ccc(C(=O)N[C@@H](CCC(=O)O)C(=O)O)s3)cc2c(=O)[nH]1            %                  55.7

Lab note: each molecule below needs its viability filled in.
1. CC(c1cc2ccccc2s1)N(O)C(N)=O (configuration not stated)
2. Cc1cc2c(C(C)C)c(O)c(O)c(C=O)c2c(O)c1-c1c(C)cc2c(C(C)C)c(O)c(O)c(C=O)c2c1O
3. O=NN(CCCl)C(=O)NC1CCCCC1
4. O=c1c(O)c(-c2ccc(O)c(O)c2)oc2cc(O)cc(O)c12
5. N#Cc1ccc(C(c2ccc(C#N)cc2)n2cncn2)cc1
6. NC(=O)NO

1. 122
2. 131
3. 120
4. 129
5. 107
6. 104

---

# Run Description: GLP1 release stimulators, primary, NCI-H716, NPC library (AID 1117341); further: reference of the scale not given here
# Condition Details: NCI-H716 cells, at 10 µM, stronger effect = higher value
Exercise: for every item that follows, state its recorded GLP1 secretion stimulation.
Numbers only, in %.

> print(dat)
                           compound  observed.measurement
1  CN(C)C(=O)Oc1cccc([N+](C)(C)C)c1                   1.3

Lab note: each compound below needs its GLP1 secretion stimulation filled in.
1. CCOC(=O)C1=C(C)NC(C)=C(C(=O)OCC)C1c1ccccc1/C=C/C(=O)OC(C)(C)C
2. O=C1c2cccc3c2[C@H](CCC3)CN1[C@@H]1CN2CCC1CC2
3. O=c1[nH]cnc2nc[nH]c12
4. Cc1[nH]cnc1CN1CCc2c(c3ccccc3n2C)C1=O
5. COc1cccc2c1C(=O)c1c(O)c3c(c(O)c1C2=O)C[C@@](O)(C(=O)CO)C[C@@H]3O[C@H]1C[C@H](N)[C@H](O)[C@H](C)O1
6. NCCS(=O)(=O)O
7. CCc1nn(CCCN2CCN(c3cccc(Cl)c3)CC2)c(=O)n1CCOc1ccccc1
8. O=c1[nH]c(=O)n([C@H]2C[C@H](O)[C@@H](CO)O2)cc1F

1. -0.4
2. -4.5
3. 0.7
4. 5.1
5. 3
6. 0.3
7. -2.9
8. 2.8
